Measured pIC50 values are reported for all entries that follow.
# measured-on: KLHDC2 (Homo sapiens (Human))
# method-description: AlphaScreen competition assay for ligand binding to KLHDC2 (GST-KLHDC2 vs biotinylated 12 aa SelK degron peptide)
# particulars: formula (IV) compounds; 0.12 nM GST-KLHDC2, 1.7 nM biotinylated 12 aa SelK peptide; triplicate; read-out: KLHDC2 binding activities IC50
Please report pIC50 as the negative decimal logarithm of the molar concentration, giving only the number.

{"columns": ["compound", "pIC50"],
 "data": [
  ["Cc1nccc(N2CCCC3(CCN(CC(=O)O)C(=O)CO3)C2)n1 (centres unmarked)", 2.86],
  ["C[C@H](C(=O)N1CCC[C@]2(CCN(CC(=O)O)C(=O)CO2)C1)c1ccccc1", 4.66],
  ["O=C(O)CN1CCC2(CCCN(C(=O)C3CCCC3)C2)OCC1=O (centres unmarked)", 4.40],
  ["O=C(O)CN1CCC2(CCCN(C(=O)C3CCC3)C2)OCC1=O (centres unmarked)", 4.29],
  ["C[C@H](C(=O)N1CCC[C@@]2(CCN(CC(=O)O)C(=O)CO2)C1)c1ccccc1", 4.20],
  ["C[C@@H](C(=O)N1CCCC2(CCN(CC(=O)O)C(=O)CO2)C1)c1ccccc1 (some centres unmarked)", 4.40],
  ["O=C(O)CN1CCC2(CCCN(c3ccnc(N4CCC(O)C4)n3)C2)OCC1=O (centres unmarked)", 4.32]
]}

Please look at the following compound next.
The compound listed as CC(C(=O)N1CCCC2(CCN(CC(=O)O)C(=O)CO2)C1)c1ccccc1 (centres unmarked) has a reported pIC50 of 4.30

###

Listed below: IC50 values for each entry.
# measured-on: KLHDC2 (Homo sapiens (Human))
# method-description: AlphaScreen competition assay for ligand binding to KLHDC2 (GST-KLHDC2 vs biotinylated 12 aa SelK degron peptide)
# particulars: formula (II) compounds; 0.12 nM GST-KLHDC2, 1.7 nM biotinylated 12 aa SelK peptide; triplicate; read-out: KLHDC2 binding activities IC50
Could you give me the number in µM? Just the number is fine.

{"columns": ["compound", "measured-on", "outcome-measure", "measurement"],
 "data": [
  ["CN1CCN(C(=O)NCc2ccccc2)CC12CCC(=O)N(CC(=O)O)CC2 (stereo not drawn) [AC1051]", "KLHDC2 (Homo sapiens (Human))", "IC50", 45.9],
  ["CN1CCN(C(=O)C2(O)CCCC2)CC12CCC(=O)N(CC(=O)O)CC2 (stereo not drawn) [AC1048]", "KLHDC2 (Homo sapiens (Human))", "IC50", 116],
  ["CN1CCN(C(=O)C(C)(C)Oc2ccccc2)CC12CCC(=O)N(CC(=O)O)CC2 (stereo not drawn) [AC1046]", "KLHDC2 (Homo sapiens (Human))", "IC50", 202],
  ["CC(=O)N1CCC[C@@H]1C(=O)N1CCN(C)C2(CCC(=O)N(CC(=O)O)CC2)C1 (stereo partly drawn) [AC1072]", "KLHDC2 (Homo sapiens (Human))", "IC50", 12.5]
]}

Now take the following compound into account.
Observed IC50, KLHDC2 (Homo sapiens (Human)), CC(Cc1ccccc1)C(=O)N1CCN(C)C2(CCC(=O)N(CC(=O)O)CC2)C1 (stereo not drawn) [AC1033] : 56.4

###

# measured-on: KLHDC2 (Homo sapiens (Human), UniProt Q9Y2U9)
# Sequence (Q9Y2U9 whole entry): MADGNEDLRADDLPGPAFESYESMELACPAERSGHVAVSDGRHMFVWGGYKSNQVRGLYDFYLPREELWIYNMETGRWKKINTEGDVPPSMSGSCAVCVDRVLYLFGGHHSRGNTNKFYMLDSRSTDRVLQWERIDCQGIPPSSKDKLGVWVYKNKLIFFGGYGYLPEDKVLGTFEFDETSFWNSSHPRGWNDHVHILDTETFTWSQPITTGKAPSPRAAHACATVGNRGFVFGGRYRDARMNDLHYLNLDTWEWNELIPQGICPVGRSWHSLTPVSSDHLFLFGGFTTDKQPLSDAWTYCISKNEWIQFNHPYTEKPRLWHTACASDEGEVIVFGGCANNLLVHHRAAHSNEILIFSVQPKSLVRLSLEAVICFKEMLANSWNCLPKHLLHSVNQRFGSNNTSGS
# method-description: AlphaScreen competition assay for ligand binding to KLHDC2 (GST-KLHDC2 vs biotinylated 12 aa SelK degron peptide)
# particulars: formula (II) compounds; 0.12 nM GST-KLHDC2, 1.7 nM biotinylated 12 aa SelK peptide; triplicate; read-out: KLHDC2 binding activities IC50
pIC50: −log10 of the molar value.
Short version: pIC50 at least 4 is 1, less is -1.

The examples below pair each entry with its known result.
{"columns": ["molecule", "label-value"],
 "data": [
  ["CN1CCN(C(=O)C2CC2c2ccccc2)CC12CCC(=O)N(CC(=O)O)CC2 (centres unmarked) [AC1032]", 1],
  ["CN1CCN(C(=O)[C@@H]2CCN2C(=O)OC(C)(C)C)CC12CCC(=O)N(CC(=O)O)CC2 (some centres unmarked) [AC1065]", -1],
  ["CN1CCN(C(=O)C2(c3ccc(F)cc3)CC2)CC12CCC(=O)N(CC(=O)O)CC2 (centres unmarked) [AC1045]", -1],
  ["CN1CCN(C(=O)[C@H]2C[C@@H](NC(=O)OC(C)(C)C)C2)CC12CCC(=O)N(CC(=O)O)CC2 (some centres unmarked) [AC1047]", -1],
  ["CC(C(=O)N1CCN(C)C2(CCC(=O)N(CC(=O)O)CC2)C1)c1ccc(O)cc1 (centres unmarked) [AC1062]", 1]
]}

Q) # check: pIC50 of CN1CCN(C(=O)c2cnn(-c3ccccc3)c2)CC12CCC(=O)N(CC(=O)O)CC2 (centres unmarked) [AC1064] is greater than or equal to 4
A) -1

###

# measured-on: KLHDC2 (Homo sapiens (Human))
# method-description: AlphaScreen competition assay for ligand binding to KLHDC2 (GST-KLHDC2 vs biotinylated 12 aa SelK degron peptide)
# particulars: formula (II) compounds; 0.12 nM GST-KLHDC2, 1.7 nM biotinylated 12 aa SelK peptide; triplicate; read-out: KLHDC2 binding activities IC50
Here the recorded IC50 is given for each entry.
Enter your answer as a number in µM; do not include the unit.

{"columns": ["compound", "IC50, µM"],
 "data": [
  ["CN1CCN(C(=O)C2CC(F)(F)C2)CC12CCC(=O)N(CC(=O)O)CC2 (stereo not drawn)", 295],
  ["CN1CCN(C(=O)C2CC(=O)N(Cc3ccccc3)C2)CC12CCC(=O)N(CC(=O)O)CC2 (stereo not drawn)", 65.9]
]}

# evaluate next
Summary line: COC(C)(C(=O)N1CCN(C)C2(CCC(=O)N(CC(=O)O)CC2)C1)c1ccccc1 (stereo not drawn) , KLHDC2 (Homo sapiens (Human)), reported IC50 = 131

###

# measured-on: KLHDC2 (Homo sapiens (Human))
# method-description: AlphaScreen competition assay for ligand binding to KLHDC2 (GST-KLHDC2 vs biotinylated 12 aa SelK degron peptide)
# particulars: formula (III) compounds; 0.12 nM GST-KLHDC2, 1.7 nM biotinylated 12 aa SelK peptide; triplicate; read-out: KLHDC2 binding activities IC50
# Procedure: The following is a description of an assay for evaluating ligand binding to KLHDC2. Amplified Luminescence Proximity Homogenous Assay (AlphaScreen) was used to monitor protein-protein interaction of two tagged components that are immobilized on beads. […] AlphaScreen assays for determining and measuring protein-protein interactions were performed using EnSpire reader (PerkinElmer). […]
outcome-measure: pIC50
Notebook: values listed as pIC50 are -log10 of the concentration (mol/L).

Below, 2 compounds whose answers are already recorded.
{"columns": ["compound", "outcome-measure", "measurement"],
 "data": [
  ["CN1CCN(c2nccc(C(=O)O)n2)CC12CCC(=O)N(CC(=O)O)CC2 (stereo not drawn)", "pIC50", 3.91],
  ["CC(=O)N1CCc2nc(N3CCN(C)C4(CCC(=O)N(CC(=O)O)CC4)C3)ncc2C1 (stereo not drawn)", "pIC50", 3.35]
]}

# ---- query compound ----
Reported pIC50 ( Cc1nc(N)nc(N2CCN(C)C3(CCC(=O)N(CC(=O)O)CC3)C2)c1Cl (stereo not drawn) ) = 3.41

###

# measured-on: KLHDC2 (Homo sapiens (Human), UniProt Q9Y2U9)
# method-description: AlphaScreen competition assay for ligand binding to KLHDC2 (GST-KLHDC2 vs biotinylated 12 aa SelK degron peptide)
# particulars: formula (II) compounds; 0.12 nM GST-KLHDC2, 1.7 nM biotinylated 12 aa SelK peptide; triplicate; read-out: KLHDC2 binding activities IC50
Reported IC50 values for a set of compounds
Express it in µM; write the number only.

Solved entries (count: 2):
{"columns": ["compound", "measurement-units", "IC50"],
 "data": [
  ["CC(=O)N1CCC(C(=O)N2CCN(C)C3(CCC(=O)N(CC(=O)O)CC3)C2)CC1 (stereo not shown)", "µM", 191],
  ["CN1CCN(C(=O)Nc2ccccc2)CC12CCC(=O)N(CC(=O)O)CC2 (stereo not shown)", "µM", 33.6]
]}

So, CN1CCN(C(=O)[C@H]2CCCN2C(=O)c2ccccc2)CC12CCC(=O)N(CC(=O)O)CC2 (stereo partly shown) ? Its IC50 was 45.4

Short answer for CN1CCN(C(=O)C2CN(Cc3ccccn3)C2)CC12CCC(=O)N(CC(=O)O)CC2 (stereo not shown) : IC50 was 4.6
